target: Cytochrome P450 2C19 (Homo sapiens); test: blockers of cytochrome P450 2C19 activity – biochemical, luminescence, ADME assay, primary screen (AID 778); settings: CYP2C19 Supersomes, luciferin-H EGE luminescence, 30 min; at 5 µM; hits give high values;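 further: plate controls were negative control wells for no effect and 2.5 mM tranylcypromine positive control for full effect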
Screen size: about 96,000 compounds; about 20,000 (21%) were called active. Only a sample is shown.
readout_name: inhibition (%)
Provide only the numeric value, understood in %.

Field: example entries. Status: answers known.
{"compound": "COc1ccc(N2CCN(CCNC(=O)CCN3C(=O)COc4ccccc43)CC2)cc1", "result_value": 6.4}
{"compound": "CCOC(=O)CNC(=O)CSc1nnc(COc2ccc(Cl)cc2)n1CC", "result_value": 14.7}
{"compound": "COC(=O)[C@H](Cc1ccccc1)NC(=O)N1CC(C)OC(C)C1 (stereo not given in full)", "result_value": 8.3}
{"compound": "CCc1ccc2oc(-c3ccc(N)cc3)nc2c1", "result_value": -5.5}
{"compound": "CCOC(=O)CSc1nnc(CNC(=O)c2ccco2)n1-c1ccc(F)cc1", "result_value": -4.9}

# evaluate next
Note down inhibition recorded for "COc1cc(OC)c(C(=O)NC2CC(C)(C)NC(C)(C)C2)cc1OC" -7.8

Entry source: PubChem BioAssay AID778
